TEST DESCRIPTION: Solubility of NUC-3373 in a range of pharmaceutically relevant solvents
Type: physicochemical
CONDITION PARAMETERS: water; read-out: Solubility
PROPERTY: Solubility

INSERT INTO assay_data (molecule, property, value) VALUES
  ('C[C@H](NP(=O)(OC[C@H]1O[C@@H](n2cc(F)c(=O)[nH]c2=O)CC1O)Oc1cccc2ccccc12)C(=O)OCc1ccccc1 (stereo partly shown)', 'Solubility', '< 2000 µg/mL');

---

TEST DESCRIPTION: Solubility of NUC-3373 in a range of pharmaceutically relevant solvents
Format: physicochemical
CONDITION PARAMETERS: ethanol, organic solvent or mixture; read-out: Solubility
PROPERTY: Solubility

INSERT INTO measurements (compound, value) VALUES
  ('C[C@H](NP(=O)(OC[C@H]1O[C@@H](n2cc(F)c(=O)[nH]c2=O)CC1O)Oc1cccc2ccccc12)C(=O)OCc1ccccc1 (stereo partly shown) [NUC-3373]', '778 mg/mL');

---

TEST DESCRIPTION: Solubility of NUC-3373 in a range of pharmaceutically relevant solvents
Format: physicochemical
CONDITION PARAMETERS: PEG 400, organic solvent or mixture; read-out: Solubility
PROPERTY: Solubility (mg/mL)

INSERT INTO results (compound, units_of_measure, value) VALUES
  ('C[C@H](NP(=O)(OC[C@H]1O[C@@H](n2cc(F)c(=O)[nH]c2=O)CC1O)Oc1cccc2ccccc12)C(=O)OCc1ccccc1 (stereo partly shown)', 'mg/mL', 422);

---

TEST DESCRIPTION: Solubility of NUC-3373 in a range of pharmaceutically relevant solvents
Assay type: physicochemical
CONDITION PARAMETERS: NMP, organic solvent or mixture; read-out: Solubility
PROPERTY: Solubility (mg/mL)

INSERT INTO measurements (compound, units_of_measure, value) VALUES
  ('C[C@H](NP(=O)(OC[C@H]1O[C@@H](n2cc(F)c(=O)[nH]c2=O)CC1O)Oc1cccc2ccccc12)C(=O)OCc1ccccc1 (stereo partly shown)', 'mg/mL', 705);
